Measured relative viability, listed per entry.
# Tested on: SK-LU-1
# experimentalProtocol: relative viability (nuclei count vs DMSO), 5 days (fraction); higher = more cells survive
# setupConditions: first compound 0.1 µM
Could you keep your reply to the number by itself?

// below: answered compounds
CCN(CC)CCCCNc1ncc2cc(-c3cc(OC)cc(OC)c3)c(NC(=O)NC(C)(C)C)nc2n1 + O=C(c1cc(Cc2n[nH]c(=O)c3ccccc23)ccc1F)N1CCN(C(=O)C2CC2)CC1 [Olaparib] (partner 8 µM); 0.477
O=c1cc(N2CCOCC2)oc2c(-c3cccc4c3sc3ccccc34)cccc12 + N=C(N)NC(=N)NCCc1ccccc1 [Phenformin] (partner 250 µM); 0.531
O=c1cc(N2CCOCC2)oc2c(-c3cccc4c3sc3ccccc34)cccc12 + Cc1nc(Nc2ncc(C(=O)Nc3c(C)cccc3Cl)s2)cc(N2CCN(CCO)CC2)n1 [Dasatinib] (partner 0.075 µM); 0.166
O=c1cc(N2CCOCC2)oc2c(-c3cccc4c3sc3ccccc34)cccc12 + C[C@@H](Oc1cc(-c2cnn(C3CCNCC3)c2)cnc1N)c1c(Cl)ccc(F)c1Cl [Crizotinib] (partner 1 µM); 0.828
CCN(CC)CCCCNc1ncc2cc(-c3cc(OC)cc(OC)c3)c(NC(=O)NC(C)(C)C)nc2n1 + N=C(N)NC(=N)NCCc1ccccc1 [Phenformin] (partner 250 µM); 0.681
CCN(CC)CCCCNc1ncc2cc(-c3cc(OC)cc(OC)c3)c(NC(=O)NC(C)(C)C)nc2n1 + CC(=O)Nc1cccc(-n2c(=O)n(C3CC3)c(=O)c3c(Nc4ccc(I)cc4F)n(C)c(=O)c(C)c32)c1 [Trametinib] (partner 0.02 µM); 0.434
O=c1cc(N2CCOCC2)oc2c(-c3cccc4c3sc3ccccc34)cccc12 + C[C@]1(O)C[C@@H](c2nc(-c3ccc4ccc(-c5ccccc5)nc4c3)c3c(N)nccn32)C1 [Linsitinib] (partner 1 µM); 1.12
O=c1cc(N2CCOCC2)oc2c(-c3cccc4c3sc3ccccc34)cccc12 + Nc1nc2[nH]cc(CCc3ccc(C(=O)N[C@@H](CCC(=O)O)C(=O)O)cc3)c2c(=O)[nH]1 [Pemetrexed] (partner 0.2 µM); 1.02

Query :: Missing value: relative viability, SK-LU-1, entry CCN(CC)CCCCNc1ncc2cc(-c3cc(OC)cc(OC)c3)c(NC(=O)NC(C)(C)C)nc2n1 + COc1cc2c(Oc3ccc(NC(=O)C4(C(=O)Nc5ccc(F)cc5)CC4)cc3F)ccnc2cc1OCCCN1CCOCC1 [Foretinib] (partner 0.25 µM) . Fill in?
Result :: 1.12

Query :: Missing value: relative viability, SK-LU-1, entry O=c1cc(N2CCOCC2)oc2c(-c3cccc4c3sc3ccccc34)cccc12 + O=C(CCCCCCC(=O)Nc1ccccc1)NO [Vorinostat] (partner 1 µM) . Fill in?
Result :: 0.751

Each recorded value in this set is attributed to the supplement of paper PMC10307832.
